experimentNotes: Retinol stability in the presence of boosters (OD 360 nm)
Assay type: physicochemical
conditionContext: booster approximately 0.1%, 60 hours at room temperature in the dark, approx. 50% aqueous ethanol
Reported values of FOLD INCREASE IN RATE OF RETINOL LOSS for individual entries
Quick reminder: number only, in fold, skip the unit.

molecule: CC(C)=CCCC(C)=CC=O
FOLD INCREASE IN RATE OF RETINOL LOSS [fold]: 3.1

I'd like to know its FOLD INCREASE IN RATE OF RETINOL LOSS. The molecule in question is O=c1ccc2ccccc2o1
1.4

Which measured FOLD INCREASE IN RATE OF RETINOL LOSS value corresponds to CCCCC/C=C\C/C=C\CCCCCCCC(=O)N(CCO)CCO [Linoleoyl Diethanolamide] ?
3.0

Name the reported FOLD INCREASE IN RATE OF RETINOL LOSS value associated with the molecule CC(C)=CCC/C(C)=C/CO
1.3

Fill in the blank: the reported FOLD INCREASE IN RATE OF RETINOL LOSS of CC(=O)/C=C/C1C(C)=CCCC1(C)C (stereo not shown) is ____.
1.3

I have this molecule here, CCCCCCCCCCCC(=O)N(C)CC(=O)O , and I need its recorded FOLD INCREASE IN RATE OF RETINOL LOSS.
2.6

If you can, please state the reported FOLD INCREASE IN RATE OF RETINOL LOSS value of CC1(C)[C@@H](O)CC[C@]2(C)[C@H]3C(=O)C=C4[C@@H]5C[C@@](C)(C(=O)O)CC[C@]5(C)CC[C@@]4(C)[C@]3(C)CC[C@@H]12 .
1.6

So what does the record say about FOLD INCREASE IN RATE OF RETINOL LOSS for CN1CCN(C)C1=O ?
1.4

Return reported FOLD INCREASE IN RATE OF RETINOL LOSS; argument: Oc1cccc2cccnc12
1.5

Please report the recorded FOLD INCREASE IN RATE OF RETINOL LOSS for CCCCC/C=C\C/C=C\CCCCCCCC(=O)O .
3.4

###

Measured % Inhibition LRAT (10 μm) of individual entries
targetUnderTest: LRAT (Bos taurus, UniProt Q9BGL2)
Construct: followed by approximately 15 μg of RPE microsomal protein; tissue W. L. Lawson Co., Lincoln, Nebr; host or cells: bovine retinal pigment epithelium microsomes
experimentNotes: Assay for LRAT activity, RPE microsomes
Type: biochemical, bovine
conditionContext: 10 μm compound

compound: CCCCCCCCCCCCC/C=C/[C@@H](O)[C@H](CO)NC(C)=O [Acetyl Sphingosine]
propertyMeasured: % Inhibition LRAT (10 μm)
observedMeasurement: 10% +/− 10
//
compound: C/C=C\C(=O)C1C(C)=CCCC1(C)C (stereo not drawn) [Alpha-Damascone]
propertyMeasured: % Inhibition LRAT (10 μm)
observedMeasurement: 87% +/− 6

Could you now consider this next compound?
I have this compound here, CCCCC/C=C\C/C=C\CCCCCCCC(=O)N(CCO)CCO [Linoleoyl Diethanolamide] , and I need its recorded % Inhibition LRAT (10 μm).
11% +/− 9

###

Examples of compounds with documented % Inhibition LRAT (100 μm) follow.
targetUnderTest: LRAT (Bos taurus)
Construct: followed by approximately 15 μg of RPE microsomal protein; tissue W. L. Lawson Co., Lincoln, Nebr; host or cells: bovine retinal pigment epithelium microsomes
Sequence (Q9BGL2 1-230): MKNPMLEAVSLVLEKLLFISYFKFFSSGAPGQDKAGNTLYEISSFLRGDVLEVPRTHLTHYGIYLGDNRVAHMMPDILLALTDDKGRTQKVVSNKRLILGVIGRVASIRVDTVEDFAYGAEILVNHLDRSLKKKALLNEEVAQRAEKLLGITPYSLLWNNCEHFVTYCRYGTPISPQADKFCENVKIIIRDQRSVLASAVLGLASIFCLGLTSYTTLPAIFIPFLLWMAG
experimentNotes: Assay for LRAT activity, RPE microsomes
Format: biochemical, bovine
conditionContext: 100 μm compound

These recorded examples may help you get a feel for the data.
smi: CCCCCCCCCCCCC/C=C/[C@@H](O)[C@H](CO)NC(C)=O
% Inhibition LRAT (100 μm): 50% +/− 18

smi: CCCCCCCC(=O)OC[C@H](COP(=O)(O)OCCN)OC(=O)CCCCCCC
% Inhibition LRAT (100 μm): 17% +/− 17

Lab note: next compound to report on.
Which % Inhibition LRAT (100 μm) value is on record for CCCCCCCCCCCCC/C=C/[C@@H](O)[C@H](CO)NC(=O)CCCCC ?
37% +/− 9

Where these numbers come from: patent US20020143059A1
